Source: patent US8507464B2

Assay: In vivo plasma or tumor pharmacokinetics of Compound 25 (Table 4)
Parameters: species or system CD-1 mice (nude mice where noted)
Details: nude, mouse, tumor, ip, 150 mg/kg, 150 mg/kg i.p., Saline, nude mice with H460 tumor, Tumor PK
recorded.endpoint: Tmax (min)
Give the value, in units of min, as a plain number.

Tell me the measured Tmax of `Cn1c(COP(=O)(NCCBr)NCCBr)cnc1[N+](=O)[O-]` , please.
15

----------
Experiment: In vivo plasma or tumor pharmacokinetics of Compound 25 (Table 4)
Parameters: species or system CD-1 mice (nude mice where noted)
Conditions: CD-1, mouse, plasma, ip, 50 mg/kg, 50 mg/kg i.p., 30% PEG/70% Saline, CD-1 mice; read-out: AUC
recorded.endpoint: AUC (µg·h/mL)
Note: unit µg·h/mL is implicit; provide only the numeric part.

State the recorded AUC for this entry: `Cn1c(COP(=O)(NCCBr)NCCBr)cnc1[N+](=O)[O-]`
438

----------
Assay: In vivo plasma or tumor pharmacokinetics of Compound 25 (Table 4)
Design: species or system CD-1 mice (nude mice where noted)
Conditions: nude, mouse, plasma, ip, 150 mg/kg, 150 mg/kg i.p., Saline, nude mice with H460 tumor, plasma; read-out: AUC
recorded.endpoint: AUC (µg·h/mL)
Kindly answer with a numeric value in µg·h/mL, unit omitted.

Tell me the measured AUC of `Cn1c(COP(=O)(NCCBr)NCCBr)cnc1[N+](=O)[O-]` , please.
1240

----------
Item-by-item account of half-life
Experiment: in vivo
Settings: CD-1, Balb/c for Compound 1, mouse, iv, t ½, intravenous administration in mice, mice
Field: numeric (min). Do not append units.

# lookup: half-life of `CN(CCCl)P(=O)(OCc1cnc([N+](=O)[O-])n1C)N(C)CCCl`
4.8

Could you tell me which half-life is on file for `Cn1c(COP(=O)(NCCBr)NCCBr)cnc1[N+](=O)[O-]` ?
6.6

// half-life lookup, key: `Cn1c(COP(=O)(NCCCl)NCCCl)cnc1[N+](=O)[O-]`
14.4

----------
Assay: in vivo
Conditions: CD-1, Balb/c for Compound 1, mouse, iv
Recorded Vd, one value per entry.

compound.string: CN(CCCl)P(=O)(OCc1cnc([N+](=O)[O-])n1C)N(C)CCCl
test.result: 1.25 L/kg

Consider the record given below.
Which value of Vd has been reported for `Cn1c(COP(=O)(NCCCl)NCCCl)cnc1[N+](=O)[O-]` in the records?
1.27 L/kg

----------
System: NCI-H460 cells
Assay: Antiproliferation assay - oxygen dependence
Assay type: cell-based, human
Conditions: Homo sapiens, NCI-H460, read-out: IC50 in H460 cells, Air
recorded.endpoint: IC50 (µM)
# number only, unit µM dropped from output

Below are worked cases with known answers.
compound: CCCn1c(COP(=O)(NCCBr)NCCBr)cnc1[N+](=O)[O-]
experimental.target: NCI-H460 cells
result.units: µM
IC50: 40
//
compound: O=[N+]([O-])c1ccc(COP(=O)(NCCCl)NCCCl)o1
experimental.target: NCI-H460 cells
result.units: µM
IC50: 5
//
compound: O=[N+]([O-])c1ccc(COP(=O)(NCCBr)NCCBr)s1
experimental.target: NCI-H460 cells
result.units: µM
IC50: 5
//
compound: O=[N+]([O-])c1ccc(COP(=O)(NCCCl)NCCCl)s1
experimental.target: NCI-H460 cells
result.units: µM
IC50: 40
//
compound: CC(OP(=O)(NCCBr)NCCBr)c1ccc([N+](=O)[O-])s1 (stereo not shown)
experimental.target: NCI-H460 cells
result.units: µM
IC50: 0.5

What does the data say about its IC50? Entry: `Cn1c(COc2ccc(COP(=O)(NCCBr)NCCBr)cc2F)cnc1[N+](=O)[O-]`
3

// query IC50 value for entry `CCN(CCOP(=O)(NCCBr)NCCBr)C(=O)OCc1cnc([N+](=O)[O-])n1C`
45

Query: IC50; subject: `O=[N+]([O-])c1ccc(COP2(=O)N(CCBr)CCN2CCBr)o1`
15

What does the record list as IC50 for `O=[N+]([O-])c1ccc(COP2(=O)N(CCBr)CCN2CCBr)s1` ?
25

What value of IC50 has been reported for the following compound? `O=[N+]([O-])c1cnc(-c2ccc(COP(=O)(NCCBr)NCCBr)cc2)s1`
8

So what's the measured IC50 for this one? `COc1cc(COP(=O)(NCCBr)NCCBr)ccc1OCc1cnc([N+](=O)[O-])n1C`
10

Return reported IC50; argument: `O=[N+]([O-])c1ccc(-c2ccc(COP(=O)(NCCBr)NCCBr)cc2)s1`
10

Report IC50 for Cn1c(COP(N)(=O)N(CCCl)CCCl)cnc1[N+](=O)[O-] (stereo not shown) please.
100

For the compound COC(=O)c1cc(C(C)OP(=O)(NCCBr)NCCBr)ccc1OCc1cnc([N+](=O)[O-])n1C (stereo not shown) , what IC50 is on record?
65

So what does the record say about IC50 for `O=[N+]([O-])c1ccc(-c2ccc(COP(=O)(NCCBr)NCCBr)cc2)o1` ?
12

Reported IC50 for CC(OP(N)(=O)N(CCCl)CCCl)c1cnc([N+](=O)[O-])n1C (stereo not shown) : what is it?
80

----------
System: NCI-H460 cells
Test: Clonogenic assay - oxygen dependence
Settings: Homo sapiens, NCI-H460, read-out: IC90 H460 Air
recorded.endpoint: IC90 (µM)
Please reply with the bare figure in µM and do not write the unit itself.

Below, each entry is followed by its recorded IC90 result.
compound: C[C@H](CCl)NP(=O)(N[C@H](C)CCl)OCc1cnc([N+](=O)[O-])n1C
test.result: 90

compound: COC(=O)c1cc(C(C)OP(=O)(NCCBr)NCCBr)ccc1OCc1cnc([N+](=O)[O-])n1C (stereo not drawn)
test.result: 20

compound: O=[N+]([O-])c1ccc(COP(=O)(NCCBr)NCCBr)o1
test.result: 14

compound: Cn1c(COP2(=O)N(CCBr)CCCN2CCBr)cnc1[N+](=O)[O-]
test.result: 30

compound: O=[N+]([O-])c1ccc(COP(=O)(NCCCl)NCCCl)o1
test.result: 5

// next entry
Recorded IC90 for `Cn1c(COP(=O)(NCCBr)NCCBr)cnc1[N+](=O)[O-]` , please?
30

----------
Assay type: physicochemical
Conditions: scan rate 100 mV/sec, glassy carbon, Ag/AgCl reference
recorded.endpoint: Reduction Potentials, 100 mV/sec

Consider the following illustrative entries.
compound: O=[N+]([O-])c1ccc(COP(=O)(NCCBr)NCCBr)o1 [Compound 24]
test.result: −568 mV
//
compound: Cn1c(COP(N)(=O)N(CCCl)CCCl)cnc1[N+](=O)[O-] (stereo not shown) [Compound 1]
test.result: −596 mV
//
compound: O=[N+]([O-])c1ncc[nH]1 [2-NO2-Imidazole, reference compound]
test.result: −634 mV
//
compound: Cn1c(COP(=O)(NCCBr)NCCBr)cnc1[N+](=O)[O-] [Compound 25]
test.result: −594 mV

Look at this compound and give its reported Reduction Potentials, 100 mV/sec. CC(OP(=O)(NCCBr)NCCBr)c1ccc([N+](=O)[O-])cc1 (stereo not shown) [Compound 78]
−704 mV

What value of measured Reduction Potentials, 100 mV/sec is listed for O=[N+]([O-])c1ccc(COP(=O)(NCCBr)NCCBr)s1 [Compound 34] ?
−584 mV

----------
System: human H460 cells
Assay: Clonogenic survival assay, hypoxia vs normoxia (Table 1A)
Settings: ratio of IC90 in normoxia and hypoxia
Each item that follows carries a reported HCR C.
Number only, no unit.

Worked cases, HCR C given:
molecule: Cn1c(COP(N)(=O)N(CCCl)CCCl)cnc1[N+](=O)[O-] (stereo not shown) [Compound 1]
experimental.target: human H460 cells
test.result: 200

molecule: Cn1c(COP2(=O)N(CCCl)CCCN2CCCl)cnc1[N+](=O)[O-] [Compound 16]
experimental.target: human H460 cells
test.result: 175

Now for a further molecule.
Name the reported HCR C value associated with the molecule O=[N+]([O-])c1ccc(COP(=O)(NCCCl)NCCCl)o1 [Compound 23]
50

----------
Target: CYP3A4 (Homo sapiens)
Sequence (P08684 whole entry): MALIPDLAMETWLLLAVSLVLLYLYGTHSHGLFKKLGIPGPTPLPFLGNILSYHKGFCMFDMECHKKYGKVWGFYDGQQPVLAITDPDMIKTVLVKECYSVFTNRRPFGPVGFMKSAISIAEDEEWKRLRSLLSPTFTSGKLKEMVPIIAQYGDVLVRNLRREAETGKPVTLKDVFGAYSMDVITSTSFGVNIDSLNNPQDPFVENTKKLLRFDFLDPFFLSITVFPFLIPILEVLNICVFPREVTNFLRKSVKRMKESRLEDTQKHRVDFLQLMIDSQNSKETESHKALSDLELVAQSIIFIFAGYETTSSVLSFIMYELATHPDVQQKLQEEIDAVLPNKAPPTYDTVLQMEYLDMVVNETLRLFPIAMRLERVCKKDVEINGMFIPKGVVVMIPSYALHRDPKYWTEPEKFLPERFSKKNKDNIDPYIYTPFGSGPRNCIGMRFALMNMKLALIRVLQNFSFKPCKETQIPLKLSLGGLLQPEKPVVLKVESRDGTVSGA
Test: in vitro
Details: pH 7.4, IC50 3A4 Midazolam, probe substrate midazolam
recorded.endpoint: IC50

What value of measured IC50 is listed for `Cn1c(COP(=O)(NCCBr)NCCBr)cnc1[N+](=O)[O-]` ?
> 50 µM

----------
Experiment: in vivo
Settings: Balb/c, mouse, iv, 50 mg/kg
recorded.endpoint: Cmax (ng/mL)
Reply numerically in ng/mL, unit not repeated.

Field request: Cmax | item: Cn1c(COP(N)(=O)N(CCCl)CCCl)cnc1[N+](=O)[O-] (stereo not shown)
35000

----------
Assay: Pharmacokinetics after intravenous or intraperitoneal administration in mice (Table 2B)
Settings: CD-1 (Compounds 5, 23, 36); Balb/c (Compound 1), mouse, plasma, iv, 50 mg/kg
recorded.endpoint: clearance (mL/min/kg)
Report the figure in mL/min/kg without appending any unit label.

Requested read-out: clearance. Entry: O=[N+]([O-])c1ccc(COP(=O)(NCCCl)NCCCl)o1 [Compound 23]
368
